Data origin, for the record: PubChem BioAssay (NCI)

System: LOX IMVI melanoma
Assay: NCI tumour cell line growth inhibition, 48 h
Form field: TGI (one value per entry).
Measure Name: TGI (nM)

- Compound: "O=C(Nc1ccc(Cl)cc1)c1cccc([N+](=O)[O-])c1O"
  Study Target: "LOX IMVI melanoma"
  Relation Qualifier: ">"
  Measured Result: 100000
- Compound: "CC1(C)C2CCC1(C)C(N/C(=C(/C(Cl)=C(Cl)Cl)[N+](=O)[O-])n1nnc3ccccc31)C2 (configuration not stated)"
  Study Target: "LOX IMVI melanoma"
  Relation Qualifier: ">"
  Measured Result: 100000
- Compound: "Nc1nc(Nc2ccc3c(c2)CC[C@@H](N2CCCC2)CC3)nn1-c1cc2c(nn1)-c1ccccc1CCC2"
  Study Target: "LOX IMVI melanoma"
  Relation Qualifier: "="
  Measured Result: 2920
- Compound: "N=C1c2nc3n(c2C(=O)c2nc4n(c21)CCCC4)CCCC3"
  Study Target: "LOX IMVI melanoma"
  Relation Qualifier: "="
  Measured Result: 2150
- Compound: "O=C1c2n[nH]nc2C(=O)c2n[nH]nc21"
  Study Target: "LOX IMVI melanoma"
  Relation Qualifier: ">"
  Measured Result: 100000
- Compound: "Cn1ccc2c(NCCN)c3c(c(NCCN)c21)C(=O)c1ccccc1C3=O"
  Study Target: "LOX IMVI melanoma"
  Relation Qualifier: "="
  Measured Result: 2000
- Compound: "COc1ccc2c([nH]c3cc(O)c(C)cc32)c1C=O"
  Study Target: "LOX IMVI melanoma"
  Relation Qualifier: ">"
  Measured Result: 25000

---

Test system: HCC-2998 colon
Assay: NCI tumour cell line growth inhibition, 48 h
Measure Name: log10 of TGI (log10 of the value in µM)

- Compound: "FC(F)(F)c1cccc(COCCN2CCN(Cc3cccc(C(F)(F)F)c3)CC2)c1"
  log10 of TGI: 1.51
- Compound: "CC(=O)c1cc2c(s1)C(=O)c1scc(C(C)=O)c1C2=O"
  log10 of TGI: 0.55
- Compound: "Cc1cc(C)c(O)c(CNCCCCCCNCc2cc(C)cc(C)c2O)c1"
  log10 of TGI: 0.38
- Compound: "CC(=O)OCC1OC(OC2CC3C(C)(C)C(OC(C)=O)CC[C@]3(C)C3CCC45CC4(CC[C@H]5C(C)CC(O)[C@@H](O)C(C)(C)O)[C@]23C)C(O)C(O)C1O (stereo partly drawn)"
  log10 of TGI: 1.11
- Compound: "COc1ccc(CNc2nc3cc(N)cc(N)c3nc2-c2ccccc2)cc1OC"
  log10 of TGI: 1.60
- Compound: "CC(=O)[C@H]1CC[C@H]2[C@@H]3CCC4=CC(=O)CC[C@]4(C)[C@H]3CC[C@]12C"
  log10 of TGI: 1.50
- Compound: "CC1(CCc2ccccc2)CC1(Br)Br (stereo not drawn)"
  log10 of TGI: 1.88
- Compound: "CSc1nc2c(c(=O)n1C)N=C(c1ccc(Cl)cc1)CC(c1ccccc1)N2 (stereo not drawn)"
  log10 of TGI: 1.73
- Compound: "C=C1C[C@@H]2C/C=C/C(=O)C/C(C)=C\\C=C\\C(=O)O[C@H](C=O)C/C(C)=C/[C@H](C1)O2"
  log10 of TGI: 0.52
- Compound: "C/C=C(\\C)C(=O)N[C@H]1[C@@H](OC(C)=O)C[C@]2(C)C3CC[C@@]4(C)C(CC[C@@H]4C(C)N(C)C)C3CCC2[C@H]1O (stereo partly drawn)"
  log10 of TGI: 1.34

---

Test system: DU-145 prostate
Test: NCI tumour cell line growth inhibition, 48 h
// TGI lookup, one value per entry
Measure Name: TGI (µM)

- Compound: "CC(=O)Nc1ccc(N2C(=O)CS(=O)(=O)C2c2cccc(Oc3ccccc3)c2)cc1 (centres undefined)"
  Unit Name: "µM"
  Relation Qualifier: ">"
  Measured Result: 100
- Compound: "CCN(CC)CCOc1ccc(Nc2ncc3cc(-c4ccc(O)cc4)c(=O)n(C)c3n2)cc1"
  Unit Name: "µM"
  Relation Qualifier: "="
  Measured Result: 26.3
- Compound: "C/C=C1/CN2[C@@H](C3=C[C@@H]4[C@@H]5N(C3=O)c3ccccc3[C@@]53CCN5C/C(=C/C)[C@@H]4C[C@H]53)C[C@@]34c5ccccc5N5C(=O)CC=C([C@H]1C[C@H]23)[C@H]54"
  Unit Name: "µM"
  Relation Qualifier: "="
  Measured Result: 22.1
- Compound: "CCCN=C1Nc2ccccc2[C@@H]2N(C)c3ccccc3C(C)C[C@]12C (some centres undefined)"
  Unit Name: "µM"
  Relation Qualifier: ">"
  Measured Result: 100

---

Tested on: NCI-H226 lung
Test: NCI tumour cell line growth inhibition, 48 h
Would you please tag the item MET when its TGI is 40 µM or above, and NOT MET when it is below?

- Compound: "CC(=O)OC(CC(C)C)P1(=O)N(CC(C)(C)C)[C@@H]2CCCC[C@H]2N1CC(C)(C)C (stereo not given in full)"
  Assigned Category: "NOT MET"
- Compound: "NC(CCl)=NC1CN2CCC1CC2 (stereo not given)"
  Assigned Category: "MET"
- Compound: "O=C(NC1CC1)c1ccc(-c2nc3ccc4[nH]ncc4c3c3c2CCCC3)cc1"
  Assigned Category: "MET"
- Compound: "CCOC(=O)/C(=C\\c1ccc(OCc2ccccc2)c(OC)c1)C(=O)c1ccccc1"
  Assigned Category: "MET"
- Compound: "CSc1nc2c(c(=O)n1C)N=C(c1ccc(Cl)cc1)CC(c1ccccc1)N2 (stereo not given)"
  Assigned Category: "MET"
- Compound: "CC([C@H]1CCC2C3CCC4C[C@@H](NC=O)CC[C@]4(C)C3CC[C@@]21C)N(C)C (stereo not given in full)"
  Assigned Category: "NOT MET"
- Compound: "COc1cc2c(cc1OC)C1=Cc3ccc(OC)c(OC)c3C(C#N)N1CC2 (stereo not given)"
  Assigned Category: "MET"
- Compound: "CCSCC(=O)N1CCc2c([nH]c3ccccc23)C1=O"
  Assigned Category: "MET"
- Compound: "O=C(Nc1ccccc1)c1cc(S(=O)(=O)Nc2n[nH]c(=O)[nH]2)c(SSc2cc(Cl)c(C(=O)Nc3ccccc3)cc2S(=O)(=O)Nc2n[nH]c(=O)[nH]2)cc1Cl"
  Assigned Category: "MET"
- Compound: "CN(C)c1ccc(/C=N/n2c(-c3ccccc3)nc3ccccc3c2=O)cc1"
  Assigned Category: "MET"

---

Tested on: NCI/ADR-RES ovarian
Assay: NCI tumour cell line growth inhibition, 48 h
# TGI values compiled below

- Compound Smiles: "CCC1=C[C@@H]2CN(C1)Cc1c([nH]c3ccccc13)[C@@](C(=O)OC)(c1cc3c(cc1OC)N(C=O)[C@H]1[C@@](O)(C(=O)OC)[C@H](OC(C)=O)[C@]4(CC)[C@@H]5C[C@@H]5CN5CC[C@]31[C@@H]54)C2"
  TGI: "> 6.25 µM"
- Compound Smiles: "COC(=O)COc1ccc(/C=C2\\N=C(c3ccccc3)N(c3cc(C(F)(F)F)ccc3Cl)C2=O)cc1"
  TGI: "> 100 µM"
- Compound Smiles: "COc1cc(NC(=O)c2cc(OC)c3ccn(C)c3c2)cc2c1C[C@]1(C)CC[C@@H](O)C(C)(C)[C@H]1O2"
  TGI: "> 100 µM"

---

System: COLO 205 colon
Experiment: NCI tumour cell line growth inhibition, 48 h
Below, each of the molecules is paired with its reported TGI value.

- Molecule: "C=C1C[C@@H]2C/C=C/C(=O)C/C(C)=C\\C=C\\C(=O)O[C@H](C=O)C/C(C)=C/[C@H](C1)O2"
  Relation Qualifier: "="
  TGI (µM): 17.7
- Molecule: "COC(=O)c1ccc(CCC2=CC(=O)C(Br)=CC2=O)cc1"
  Relation Qualifier: "="
  TGI (µM): 18.7
- Molecule: "CN(C)c1ccc(/C=N/n2c(-c3ccccc3)nc3ccccc3c2=O)cc1"
  Relation Qualifier: ">"
  TGI (µM): 100
- Molecule: "COc1ccc2nc(-c3ccccc3)cc(Nc3ccc(C(C)=O)cc3)c2c1"
  Relation Qualifier: ">"
  TGI (µM): 100
- Molecule: "C/C=C1/CN2[C@@H](C3=C[C@@H]4[C@@H]5N(C3=O)c3ccccc3[C@@]53CCN5C/C(=C/C)[C@@H]4C[C@H]53)C[C@@]34c5ccccc5N5C(=O)CC=C([C@H]1C[C@H]23)[C@H]54"
  Relation Qualifier: "="
  TGI (µM): 7.54
- Molecule: "C/C=C(\\C)C(=O)N[C@H]1[C@@H](OC(C)=O)C[C@]2(C)C3CC[C@@]4(C)C(CC[C@@H]4C(C)N(C)C)C3CCC2[C@H]1O (some centres undefined)"
  Relation Qualifier: "="
  TGI (µM): 5.91
- Molecule: "CC([C@H]1CCC2C3CCC4C[C@@H](NC=O)CC[C@]4(C)C3CC[C@@]21C)N(C)C (some centres undefined)"
  Relation Qualifier: "="
  TGI (µM): 3.11
- Molecule: "CC(C)=CC(=O)Oc1ccc([N+](=O)[O-])cc1"
  Relation Qualifier: ">"
  TGI (µM): 100
- Molecule: "OC(C1=C/C(=C\\c2ccncc2)c2ccccc21)c1ccncc1 (centres undefined)"
  Relation Qualifier: "="
  TGI (µM): 29.3
